Target: Recombinant full length human OGA enzyme (Homo sapiens, UniProt O60502)
Construct: Recombinant full length human OGA enzyme
Assay: OGA Enzyme Inhibition Biochemical Assay
Conditions: 1 nM OGA, 100 μM 4-MUGlcNAc (Km), pH 6.4, 90 minutes at room temperature, 10-point dose-response starting from 20 μM
Experimental: OGA Enzyme Inhibition Biochemical Assay Recombinant full length human OGA enzyme was purchased from Origene. 4-MUGlCNAc substrate was purchased from Sigma. All other reagents were purchased from Sigma or Fisher. […] Reactions were incubated for 90 minutes at room temperature and quenched with […] of 3M glycine, pH 10 and read on a Perkin Elmer Envision plate reader (Ex: 355 nm/Em: 460 nm). […]
Task for the reader: assign each of the following compounds its reported pIC50.
One number for each entry, as −log10 of the molar value.

Solved entries:
CC(=O)Nc1ncc(CN2C[C@@H](Nc3ccc(C#N)cn3)[C@H]2C)s1    6.24
COc1cc(OC2CN(Cc3cnc(NC(C)=O)s3)C2)ncn1    6.39
CC(=O)Nc1ncc(CN2CC(Nc3ccc(F)cn3)C2)s1    6.89

Dear colleague, could you send me pIC50 for each of the items below? Thanks.
1. COc1cc(O[C@H]2CN(Cc3cnc(NC(C)=O)s3)[C@@H]2C)ncn1
2. COc1cc(O[C@H]2CN(Cc3cnc(NC(C)=O)s3)[C@@H]2C)ccn1

Reply |
1: 6.22; 2: 6.68

====

Biological target: Recombinant full length human OGA enzyme (Homo sapiens, UniProt O60502)
Construct: Recombinant full length human OGA enzyme
Sequence (O60502 1-916): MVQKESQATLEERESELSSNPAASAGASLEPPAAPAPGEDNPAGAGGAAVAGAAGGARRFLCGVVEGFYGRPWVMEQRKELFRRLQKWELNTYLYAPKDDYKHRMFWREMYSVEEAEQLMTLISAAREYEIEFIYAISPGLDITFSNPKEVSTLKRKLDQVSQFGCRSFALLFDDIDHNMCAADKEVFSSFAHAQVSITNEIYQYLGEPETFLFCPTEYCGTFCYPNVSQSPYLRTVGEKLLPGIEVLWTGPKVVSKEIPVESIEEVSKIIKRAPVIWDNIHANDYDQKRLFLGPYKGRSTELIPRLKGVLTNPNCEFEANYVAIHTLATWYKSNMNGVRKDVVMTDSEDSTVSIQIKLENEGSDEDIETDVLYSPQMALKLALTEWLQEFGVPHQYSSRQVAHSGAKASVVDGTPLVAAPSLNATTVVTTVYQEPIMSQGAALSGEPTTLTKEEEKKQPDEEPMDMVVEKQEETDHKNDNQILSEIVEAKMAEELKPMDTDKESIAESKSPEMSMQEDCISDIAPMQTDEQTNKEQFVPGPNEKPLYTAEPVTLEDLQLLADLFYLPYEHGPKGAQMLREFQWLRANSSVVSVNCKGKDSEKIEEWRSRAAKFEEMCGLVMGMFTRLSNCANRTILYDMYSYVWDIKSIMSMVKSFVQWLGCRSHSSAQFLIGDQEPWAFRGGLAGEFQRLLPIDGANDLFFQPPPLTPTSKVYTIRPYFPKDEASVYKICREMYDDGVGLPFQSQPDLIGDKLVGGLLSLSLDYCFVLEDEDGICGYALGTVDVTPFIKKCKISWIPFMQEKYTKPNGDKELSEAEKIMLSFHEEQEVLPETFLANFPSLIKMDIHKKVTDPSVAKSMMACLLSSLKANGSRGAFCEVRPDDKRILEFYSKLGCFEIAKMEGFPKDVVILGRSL
Assay: OGA Enzyme Inhibition Biochemical Assay
Conditions: 1 nM OGA, 100 μM 4-MUGlcNAc (Km), pH 6.4, 90 minutes at room temperature, 10-point dose-response starting from 20 μM
Task for the reader: assign each of the following compounds its reported pIC50.
One number for each entry, as −log10 of the molar value.

Solved entries:
CC(=O)Nc1ncc(CN2C[C@@H](Oc3ccc(C#N)cn3)[C@H]2C)s1    6.36
CC(=O)Nc1ncc(CN2C[C@@H](Oc3ncc(F)cn3)[C@H]2C)s1    6.24
COc1cc(O[C@@H]2CN(Cc3cnc(NC(C)=O)s3)[C@@H]2C)ncn1 (single isomer, unassigned) [Example 2-10]    6.22

We now examine a further compound.
Ask | I have this compound here, COc1cc(CNC2CN(Cc3cnc(NC(C)=O)s3)C2)ccn1 , and I need its recorded pIC50.
Reply | 6.68
